- Tested on: SK-MEL-5 melanoma
- ASSAY DETAILS: NCI tumour cell line growth inhibition, 48 h
Each entry below carries its recorded TGI.

Take a look at these entries with their results.
[
  {
    "COMPOUND": "C#CCSC(C=C=C)P(=O)(OC(C)C)OC(C)C (stereo unspecified)",
    "ATTRIBUTE MEASURED": "TGI",
    "RECORDED MEASUREMENT": "> 100 µM"
  },
  {
    "COMPOUND": "Cc1c(NC(=O)CSC(=S)N2CCN(Cc3ccccc3)CC2)c(=O)n(-c2ccccc2)n1C",
    "ATTRIBUTE MEASURED": "TGI",
    "RECORDED MEASUREMENT": "> 100 µM"
  },
  {
    "COMPOUND": "CC1(C)CC(C)(C)C1=NNC(N)=O",
    "ATTRIBUTE MEASURED": "TGI",
    "RECORDED MEASUREMENT": "> 100 µM"
  },
  {
    "COMPOUND": "COc1cccc(-n2ncc3c(N/N=C/c4ccncc4)ncnc32)c1",
    "ATTRIBUTE MEASURED": "TGI",
    "RECORDED MEASUREMENT": "> 9.75 µM"
  },
  {
    "COMPOUND": "CS[C@]12C(=O)C[C@@]3(C)[C@@H](CC[C@]3(O)C(=O)CO)[C@@H]1CCC1=CC(=O)CC[C@@]12C",
    "ATTRIBUTE MEASURED": "TGI",
    "RECORDED MEASUREMENT": "> 100 µM"
  }
]

-- ask TGI lookup needed for `CC1(c2ccc[n+](Cc3ccccc3)c2)OCCO1` , thanks.
-- reply > 100 µM

----------
- System: MDA-MB-231 breast
- ASSAY DETAILS: NCI tumour cell line growth inhibition, 48 h
Each entry below carries its recorded TGI.

Take a look at these entries with their results.
[
  {
    "COMPOUND": "O=C1c2c(O)cccc2C(C2OC(CO)C(O)C(O)C2O)c2cc(CO)cc(O)c21 (configuration not stated)",
    "ATTRIBUTE MEASURED": "TGI",
    "RECORDED MEASUREMENT": "> 100 µM"
  },
  {
    "COMPOUND": "COc1cc(/C=C2/C[C@H]3[C@@H]4CC=C5C[C@@H](OC(C)=O)CC[C@]5(C)[C@H]4CC[C@]3(C)NC2=O)cc(OC)c1OC",
    "ATTRIBUTE MEASURED": "TGI",
    "RECORDED MEASUREMENT": "62.5 µM"
  },
  {
    "COMPOUND": "O=C(NN1C(=O)CSC12CCCC2)c1[nH]c2ccc(Br)cc2c1-c1ccccc1",
    "ATTRIBUTE MEASURED": "TGI",
    "RECORDED MEASUREMENT": "> 100 µM"
  },
  {
    "COMPOUND": "CS[C@]12C(=O)C[C@@]3(C)[C@@H](CC[C@]3(O)C(=O)CO)[C@@H]1CCC1=CC(=O)CC[C@@]12C",
    "ATTRIBUTE MEASURED": "TGI",
    "RECORDED MEASUREMENT": "> 100 µM"
  },
  {
    "COMPOUND": "CC1=C(CO)C(=O)O[C@@H]([C@@H](C)[C@H]2CC[C@H]3[C@@H]4C[C@@H](O)[C@@]5(O)CC=CC(=O)[C@]5(C)[C@H]4CC[C@]23C)C1",
    "ATTRIBUTE MEASURED": "TGI",
    "RECORDED MEASUREMENT": "> 100 µM"
  },
  {
    "COMPOUND": "COC(=O)C(Cc1ccccc1)NP(=O)(O)OCC1OC(n2cc(F)c(=O)[nH]c2=O)CC1O (configuration not stated)",
    "ATTRIBUTE MEASURED": "TGI",
    "RECORDED MEASUREMENT": "> 100 µM"
  }
]

-- ask API: value(readout=TGI, system=MDA-MB-231 breast) for record CC1(C)C2C=CC1(C)C1(CC2)OCCO1 (configuration not stated)
-- reply > 100 µM

-- ask API: value(readout=TGI, system=MDA-MB-231 breast) for record C/C=C(/C)C(=O)O[C@H](C[C@@H](C)[C@H]1CC(c2ccoc2)OC1=O)[C@@]1(C)C(=O)CCC2O[C@]21C (some centres not stated)
-- reply > 100 µM

-- ask API: value(readout=TGI, system=MDA-MB-231 breast) for record `CC(=O)c1c(C(F)(F)F)n([O-])c2cc(Cl)c(Cl)cc2[n+]1=O`
-- reply 2.99 µM

-- ask API: value(readout=TGI, system=MDA-MB-231 breast) for record `O=C(/C=C/c1ccc([N+](=O)[O-])cc1)c1ccc2c3c(cccc13)CC2`
-- reply > 100 µM

-- ask API: value(readout=TGI, system=MDA-MB-231 breast) for record Nc1nc(Nc2ccc(C3CCC(N4CCOCC4)CC3)cc2)nn1-c1ccccn1 (configuration not stated)
-- reply > 100 µM

-- ask API: value(readout=TGI, system=MDA-MB-231 breast) for record `COC(=O)c1c(OC(C)=O)ccc2c1c1c(n2C)C(=O)c2ccccc2C1=O`
-- reply > 100 µM

-- ask API: value(readout=TGI, system=MDA-MB-231 breast) for record `Cc1ccc(S(=O)(=O)Nc2cccc3[nH]c(C(F)(F)F)nc23)cc1`
-- reply 22.5 µM

-- ask API: value(readout=TGI, system=MDA-MB-231 breast) for record COc1ccc(C2SC(C)C(=O)N2NC(=O)C(O)c2ccccc2)cc1OC (configuration not stated)
-- reply > 100 µM
